The values you see were collected from patent US20200057058A1.

# maps each entry to its Kd
# target: monomeric streptavidin variant mSA2
# procedure.summary: apparent Kd (Kd,app); fluorescent binding curve, labeled mSA2 in 50% urine, 4 h; quadratic fit
observed.property: Kd

3xSP30.3k thin film (3x rcSso7d.SA-PNIPAM conjugate, PNIPAM Mn 30.3 kDa) (designed binder, maleimide end-functionalized PNIPAM (Mn 30.3 kDa) on the N-terminal Cys; film lightly crosslinked with glutaraldehyde) MGSSHHHHHHSSGLVPRGSHMCATVKFTYQGEEKQVDISKIKIVARDGQYIDFKYDEGGGAYGYGWVSEKDAPKELLQMLEKQGGGGSGGGGSMATVKFTYQGEEKQVDISKIKIVARDGQYIDFKYDEGGGAYGYGWVSEKDAPKELLQMLEKQGGGGSGGGGSMATVKFTYQGEEKQVDISKIKIVARDGQYIDFKYDEGGGAYGYGWVSEKDAPKELLQMLEKQGG : 29 µM
rcSso7d.SA monolayer (designed binder, EDC/NHS-activated protein coupled to an amine-functionalized silicon wafer, also called monomeric rcSso7d.SA; surface-immobilized rcSso7d.SA) MGSIHHHHHHSSGLVPRGSHMCATVKFTYQGEEKQVDISKIKIVARDGQYIDFKYDEGGGAYGYGWVSEKDAPKELLQMLEKQ : 50 µM
3xSP77.6k thin film (3x rcSso7d.SA-PNIPAM conjugate, PNIPAM Mn 77.6 kDa) (designed binder, maleimide end-functionalized PNIPAM (Mn 77.6 kDa) on the N-terminal Cys; film lightly crosslinked with glutaraldehyde) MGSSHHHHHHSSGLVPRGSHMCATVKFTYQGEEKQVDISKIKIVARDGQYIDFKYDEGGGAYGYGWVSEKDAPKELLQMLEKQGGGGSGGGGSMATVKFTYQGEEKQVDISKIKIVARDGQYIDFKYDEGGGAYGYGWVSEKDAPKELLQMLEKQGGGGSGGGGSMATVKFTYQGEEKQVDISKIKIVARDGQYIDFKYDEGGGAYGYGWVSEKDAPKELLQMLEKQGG : 31 µM
3xSP9.6k thin film (3x rcSso7d.SA-PNIPAM conjugate, PNIPAM Mn 9.6 kDa) (designed binder, maleimide end-functionalized PNIPAM (Mn 9.6 kDa) on the N-terminal Cys; film lightly crosslinked with glutaraldehyde) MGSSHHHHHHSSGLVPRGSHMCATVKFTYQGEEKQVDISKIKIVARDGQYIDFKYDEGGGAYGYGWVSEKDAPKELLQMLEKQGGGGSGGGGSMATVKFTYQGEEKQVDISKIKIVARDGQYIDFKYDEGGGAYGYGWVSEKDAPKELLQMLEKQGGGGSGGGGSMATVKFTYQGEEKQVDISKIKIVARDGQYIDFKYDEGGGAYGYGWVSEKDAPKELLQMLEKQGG : 26 µM
